- measurement_target: Sodium channel protein type 9 subunit alpha (Homo sapiens, UniProt Q15858)
- Sequence (Q15858 whole entry): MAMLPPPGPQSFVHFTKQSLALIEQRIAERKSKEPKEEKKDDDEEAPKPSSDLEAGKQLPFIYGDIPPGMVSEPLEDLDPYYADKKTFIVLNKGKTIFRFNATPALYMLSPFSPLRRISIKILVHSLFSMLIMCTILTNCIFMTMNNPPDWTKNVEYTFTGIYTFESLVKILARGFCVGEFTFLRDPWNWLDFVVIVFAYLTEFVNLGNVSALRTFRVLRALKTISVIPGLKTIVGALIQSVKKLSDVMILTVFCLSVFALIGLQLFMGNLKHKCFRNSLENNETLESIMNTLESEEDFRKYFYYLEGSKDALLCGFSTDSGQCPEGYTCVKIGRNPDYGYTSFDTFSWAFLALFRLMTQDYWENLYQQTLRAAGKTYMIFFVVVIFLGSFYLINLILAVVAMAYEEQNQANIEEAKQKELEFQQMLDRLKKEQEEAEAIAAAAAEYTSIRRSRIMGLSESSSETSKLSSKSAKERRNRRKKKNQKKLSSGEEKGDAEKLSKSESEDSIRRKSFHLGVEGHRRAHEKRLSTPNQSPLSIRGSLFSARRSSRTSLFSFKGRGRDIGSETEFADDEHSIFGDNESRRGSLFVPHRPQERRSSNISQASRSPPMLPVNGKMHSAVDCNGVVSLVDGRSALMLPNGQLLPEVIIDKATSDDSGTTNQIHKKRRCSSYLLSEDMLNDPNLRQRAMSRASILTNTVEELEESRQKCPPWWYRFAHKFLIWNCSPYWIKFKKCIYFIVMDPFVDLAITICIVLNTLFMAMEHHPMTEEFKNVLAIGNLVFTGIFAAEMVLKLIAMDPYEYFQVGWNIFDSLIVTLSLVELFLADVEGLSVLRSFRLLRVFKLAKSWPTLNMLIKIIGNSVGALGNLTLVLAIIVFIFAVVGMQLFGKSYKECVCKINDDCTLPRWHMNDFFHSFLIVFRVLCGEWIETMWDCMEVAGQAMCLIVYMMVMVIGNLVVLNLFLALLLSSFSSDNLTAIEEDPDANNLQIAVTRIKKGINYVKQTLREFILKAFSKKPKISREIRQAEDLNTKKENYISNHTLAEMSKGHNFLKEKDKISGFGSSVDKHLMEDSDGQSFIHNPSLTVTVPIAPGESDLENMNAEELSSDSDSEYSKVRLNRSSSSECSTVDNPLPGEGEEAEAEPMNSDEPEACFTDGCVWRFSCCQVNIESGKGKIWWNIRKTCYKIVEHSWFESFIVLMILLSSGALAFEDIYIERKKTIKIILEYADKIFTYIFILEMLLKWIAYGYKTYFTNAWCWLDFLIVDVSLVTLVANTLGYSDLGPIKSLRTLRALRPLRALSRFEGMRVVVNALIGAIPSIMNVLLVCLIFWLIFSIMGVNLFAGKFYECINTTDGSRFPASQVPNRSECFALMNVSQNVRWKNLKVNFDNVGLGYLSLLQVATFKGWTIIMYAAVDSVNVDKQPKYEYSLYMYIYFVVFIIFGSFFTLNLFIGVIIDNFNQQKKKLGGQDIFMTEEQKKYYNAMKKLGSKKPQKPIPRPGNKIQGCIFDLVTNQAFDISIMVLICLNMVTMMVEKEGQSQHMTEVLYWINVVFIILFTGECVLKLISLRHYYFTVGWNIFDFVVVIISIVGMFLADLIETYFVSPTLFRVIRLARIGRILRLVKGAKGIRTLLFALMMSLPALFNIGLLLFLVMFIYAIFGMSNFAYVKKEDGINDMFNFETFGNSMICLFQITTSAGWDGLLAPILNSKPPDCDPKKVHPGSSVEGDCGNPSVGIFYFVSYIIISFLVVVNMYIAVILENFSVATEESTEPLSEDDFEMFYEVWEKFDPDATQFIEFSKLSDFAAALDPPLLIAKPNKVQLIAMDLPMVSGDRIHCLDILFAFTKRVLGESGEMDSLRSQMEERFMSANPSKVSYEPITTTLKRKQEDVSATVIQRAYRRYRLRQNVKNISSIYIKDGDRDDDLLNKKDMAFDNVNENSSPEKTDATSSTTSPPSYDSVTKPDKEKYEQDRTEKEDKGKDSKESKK
- test_protocol: Displacement of [3H]GX-545 from Nav1.7 VSD4 (unknown origin)
pKi: −log10 of the molar value.
criterion met means recorded pKi is 7 or above; criterion not met means it is below 7.

// known answers, use as guide
C[C@H]1[C@H](O)CN(C(=O)c2cc(C3CC3)c(OCC34CC5CC(CC(C5)C3)C4)cc2F)[C@@H]1C(=O)O criterion met
O=C(O)[C@@H]1C2CC(C2)N1C(=O)c1cc(C2CC2)c(OCC23CC4CC(CC(C4)C2)C3)cc1F criterion not met
N#C[C@H]1C[C@@H](C(=O)O)N(C(=O)c2cc(C3CC3)c(OCC34CC5CC(CC(C5)C3)C4)cc2F)C1 criterion not met
O=C(O)[C@@H]1[C@@H](F)CCN1C(=O)c1cc(C2CC2)c(OCC23CC4CC(CC(C4)C2)C3)cc1F criterion met
O=C(O)[C@@H]1CCCN1C(=O)c1cc(C2CC2)c(OCC23CC4CC(CC(C4)C2)C3)cc1F criterion met

Now examine the next entry.
Q: Is pKi at least 7? Consider O=C(O)[C@@H]1[C@H](F)CCN1C(=O)c1cc(C2CC2)c(OCC23CC4CC(CC(C4)C2)C3)cc1F
A: criterion not met

---

- test_protocol: Half life in mouse at 3 mg/kg, po
- Type: ADME, organism-based
- cond: in vivo
property_label: half-life (h)
// note: answer is a bare numeric in h

Q: I am curious: what half-life value has been reported for C[C@@H]1[C@@H](C(=O)O)[C@H](C(=O)c2cc(C3CC3)c(OCC3CCN(Cc4c(Cl)cccc4Cl)CC3)cc2F)C[C@@H]1F ?
A: 3.6

---

- test_protocol: Drug concentration in plasma of aconitine-induced nociception in IEM transgenic FVB mouse model at 10 mg/kg, po pretreated for 2 hrs followed by aconitine administration measured for 30 mins post-aconitine dose
- Type: ADME, organism-based
property_label: concentration at 2.5 h
Show the value, then the unit it is measured in.

Q: Item C[C@@H]1[C@@H](C(=O)O)[C@H](C(=O)c2cc(C3CC3)c(OCC3CCN(Cc4c(Cl)cccc4Cl)CC3)cc2F)C[C@@H]1F has what recorded concentration at 2.5 h?
A: 7.29 µM

---

- Tested on: BCRP
- test_protocol: Efflux ratio in MDCK-BCRP cells
- Assay type: ADME, cell-based, Canis lupus familiaris
- cond: dog
property_label: efflux ratio
Please state the value as a number alone, without comment.

Q: Query (molecule): C[C@@H]1[C@@H](C(=O)O)[C@H](C(=O)c2cc(C3CC3)c(OCC3CCN(Cc4c(Cl)cccc4Cl)CC3)cc2F)C[C@@H]1F ; field requested: efflux ratio
A: 0.92

---

- test_protocol: Metabolic stability in mouse liver microsomes assessed as hepatic clearance
- Format: ADME, Microsome
property_label: CLhep predicted
Write your answer as a measured quantity: the number, then the unit.

Reference set, count: 4
compound	CLhep predicted
C[C@@H]1[C@@H](C(=O)O)N(C(=O)c2cc(C3CC3)c(OCC34CC5CC(CC(C5)C3)C4)cc2F)C[C@@H]1F	64 mL/min/kg
C[C@@H]1[C@@H](C(=O)O)[C@H](C(=O)c2cc(C3CC3)c(OCC3CCN(Cc4c(Cl)cccc4Cl)CC3)cc2F)C[C@@H]1F	51 mL/min/kg
O=C(O)[C@@H]1CCCN1C(=O)c1cc(C2CC2)c(OCC23CC4CC(CC(C4)C2)C3)cc1F	61 mL/min/kg
C[C@@H]1[C@@H](C(=O)O)[C@H](C(=O)c2cc(C3CC3)c(OCC34CC5CC(CC(C5)C3)C4)cc2F)C[C@@H]1F	53 mL/min/kg

Q: Would you mind telling me what CLhep predicted value was observed for O=C(c1cc(C2CC2)c(OCC23CC4CC(CC(C4)C2)C3)cc1F)C1CCC[C@H]1C(=O)O (stereo not given in full) ?
A: 61 mL/min/kg

src = ChEMBL document CHEMBL6087427
